PROTOCOL DESCRIPTION: Neurotoxicity in ip dosed Sprague-Dawley rat by rotarod test
Format: toxicity, organism-based
CONDITION PARAMETERS: in vivo
RESULT TYPE: TD50

Inquiry: Given the compound Cc1cc(NC2=CC(=O)CC(C)C2)no1 (stereo unspecified) , what is its reported TD50?
Reply text: > 120 mg/kg
